Tested on: H1N1 virus
assay_procedure: microbe, parasite or virus in culture
Format: cell-based
run_parameters: Influenza A virus, H1N1, MDCK
experimental_readout: IC50 (nM)
The reply should be a number in nM, with the unit left off.

Give its IC50 value. Item: CCOC(=O)C1=C[C@@H](OC(CC)CC)[C@H](NC(C)=O)[C@@H](N)C1 [oseltamivir, reference compound]
9.1
